// provenance: PubChem BioAssay AID1159580

Assay: chemical genetic growth profiling, strain panel (AID 1159580);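 also: tested at 20 µM; growth read once vehicle control cultures reached saturation at 30 °C; 1 = growth at the plate median or of vehicle wells; lower values mean less growth of the strain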
Conditions: S. cerevisiae deletion strains, growth OD, locus YLR268W, strain sec22
Screen size: about 5,500 compounds; about 2,000 (36%) were called active. Another 18% or so got no clear call; they are omitted. Rule as the data show it: active = normalized growth mostly below about 0.91 (no sharp cut-off); inconclusive = no clear call, values can overlap the other calls; inactive = mostly above about 0.92. The list shows a part of the results.
Outcome field: choose from active, inactive

[[record]]
compound = "C[C@]12C=CC(=O)C=C1CCC1C3C[C@@H](O)[C@](O)(C(=O)CO)[C@@]3(C)C[C@H](O)[C@@]12F (stereo partly specified)"
class_assignment = "inactive"


Then there is this compound:
# fetch the recorded call for O=C(O)CCCOc1ccc(Cl)cc1Cl here
inactive

---

Assay: chemical genetic growth profiling, strain panel (AID 1159580);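 also: tested at 20 µM; growth read once vehicle control cultures reached saturation at 30 °C; 1 = growth at the plate median or of vehicle wells; lower values mean less growth of the strain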
Conditions: S. cerevisiae deletion strains, growth OD, locus YKL085W, strain MDH1, hits give low values
Hit rate of the full screen: of about 5,500 compounds, about 2,000 (36%) were called active. Not shown: some 18% with an inconclusive outcome. The list shows a part of the results.
PARAMETER: normalized growth
In your answer, state the number alone without any accompanying words.

Solved entries:
[[record]]
compound = "C[C@@H]1CC2C3C[C@H](F)C4=CC(=O)C=C[C@]4(C)[C@@]3(F)[C@@H](O)C[C@]2(C)[C@@]1(O)C(=O)COC(=O)C(C)(C)C (some centres undefined)"
endpoint_result = 1

[[record]]
compound = "O=c1[nH]cnc2[nH]ncc12"
endpoint_result = 1

[[record]]
compound = "N#C/C(=C\\c1cccc(O)c1)C(=O)O"
endpoint_result = 0.951

[[record]]
compound = "COc1cc(C)c(C(=O)Oc2cc(C)c(C(=O)O)c(O)c2C)c(OC)c1C"
endpoint_result = 0.995

[[record]]
compound = "C=C[C@H]1CN2CC[C@H]1C[C@@H]2[C@H](O)c1ccnc2ccccc12"
endpoint_result = 0.972

[[record]]
compound = "COC(=O)c1c(C)cc(OC(=O)c2c(C)c(Cl)c(O)c(C=O)c2O)c(C)c1O"
endpoint_result = 0.996

[[record]]
compound = "CC1CC2C3CC(F)C4=CC(=O)C=CC4(C)C3(F)C(O)CC2(C)C1C(=O)COC(=O)C(C)(C)C (centres undefined)"
endpoint_result = 1.01

[[record]]
compound = "CC(=O)O[C@H]1C[C@@H](OC(C)=O)C(C)(C)C2CC(=O)[C@]3(C)C(CC[C@@]4(C)[C@H](c5ccoc5)OC(=O)[C@H]5O[C@]543)[C@]21C (some centres undefined)"
endpoint_result = 1.01


In one line, give reported normalized growth of the entry CC1(C)C(O)CC(O)C2(C)C1CC(O)C1(C)C2CCC2(C)C(c3ccoc3)OC(=O)C3OC321 (centres undefined) .
1

---

Assay: chemical genetic growth profiling, strain panel (AID 1159580);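 also: tested at 20 µM; growth read once vehicle control cultures reached saturation at 30 °C; 1 = growth at the plate median or of vehicle wells; lower values mean less growth of the strain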
Conditions: S. cerevisiae deletion strains, growth OD, locus YCL029C, strain bik1, hits give low values
About 2,000 (36%) of roughly 5,500 compounds were called active. Another 18% or so got no clear call; they are omitted. Some of the results follow.
PARAMETER: normalized growth
In your answer, state the number alone without any accompanying words.

Solved entries:
[[record]]
molecule = "Cc1nc2sccn2c(=O)c1CCN1CCC(=C(c2ccc(F)cc2)c2ccc(F)cc2)CC1"
parameter = "normalized growth"
endpoint_result = 0.885

[[record]]
molecule = "COc1ccc(C(=O)CC(=O)c2ccc(C(C)(C)C)cc2)cc1"
parameter = "normalized growth"
endpoint_result = 1.01

[[record]]
molecule = "O=c1cc(-c2cc(O)c(O)c(O)c2)oc2cc(O)cc(O)c12"
parameter = "normalized growth"
endpoint_result = 0.988

[[record]]
molecule = "CC(CCC(=O)O)[C@H]1CCC2C3CC[C@@H]4C[C@H](O)CC[C@]4(C)C3CC[C@@]21C (some centres undefined)"
parameter = "normalized growth"
endpoint_result = 0.993

[[record]]
molecule = "CC(CCC(=O)O)[C@H]1CCC2C3C[C@H](O)[C@@H]4C[C@H](O)CC[C@]4(C)C3CC[C@@]21C (some centres undefined)"
parameter = "normalized growth"
endpoint_result = 1.04


In one line, give reported normalized growth of the entry Cc1cc(C)cc(OCC2CNC(=O)O2)c1 (centres undefined) .
1.01

In one line, give reported normalized growth of the entry Cc1cc(O)c(C)c2c1C(=O)Oc1c(C)c(O)c(C(=O)O)c(C)c1O2 .
0.973

In one line, give reported normalized growth of the entry C[C@H](N)[C@H](O)c1cccc(O)c1 .
0.985

In one line, give reported normalized growth of the entry COc1c2ccoc2nc2c(OC)c(OCC(O)C(C)(C)O)ccc12 (centres undefined) .
0.974

In one line, give reported normalized growth of the entry O=C(O)Cc1cc(I)c(Oc2cc(I)c(O)c(I)c2)c(I)c1 .
0.96

In one line, give reported normalized growth of the entry C=C1[C@H]2CC[C@@]3(C)[C@H](c4ccoc4)OC(=O)C[C@]13O[C@H]1C[C@H](O)C(C)(C)[C@H](CC(=O)OC)[C@]12C .
1.01

In one line, give reported normalized growth of the entry C[C@H](CCC(=O)O)[C@H]1CCC2C3C(CC[C@@]21C)[C@@]1(C)CC[C@@H](O)C[C@H]1C[C@H]3O (some centres undefined) .
1.05

In one line, give reported normalized growth of the entry Cc1nc2ccccn2c(=O)c1CCN1CCC(C(=O)c2ccc(F)cc2)CC1 .
0.999

In one line, give reported normalized growth of the entry C=C1C2CC[C@@]3(C)[C@H](c4ccoc4)OC(=O)C[C@]13O[C@H]1CC(O)C(C)(C)C(CC(=O)OC)[C@@]21C (some centres undefined) .
1.01

In one line, give reported normalized growth of the entry C[C@H](CCC(=O)O)[C@H]1CCC2C3C(CC[C@@]21C)[C@@]1(C)CC[C@@H](O)C[C@H]1C[C@@H]3O (some centres undefined) .
0.963

In one line, give reported normalized growth of the entry CC1CCC2(OC1)OC1CC3C4CCC5C[C@@H](O)CCC5(C)C4=CCC3(C)C1[C@@H]2C (some centres undefined) .
0.972

In one line, give reported normalized growth of the entry C[C@H](N)[C@H](O)c1ccccc1 .
1

In one line, give reported normalized growth of the entry C[C@]12C=CC(=O)C=C1CCC1C3C[C@@H](O)[C@](O)(C(=O)CO)[C@@]3(C)C[C@H](O)[C@@]12F (some centres undefined) .
0.98
